The reported measurements were obtained from paper PMC6273912.

Tested on: HeLa (cervical cancer)
protocol text: MTT cell viability assay, HeLa
Type: cell-based, human
reported conditions: 72 h of incubation, mean ± SD
IC50 listing for selected compounds.
Write the value in µM as a bare number.

INSERT INTO assay_data (sample_smiles, assay_endpoint, result_units, reported_value) VALUES
  ('Cc1cc(S(=O)(=O)Nc2nncc(-c3ccc(C(F)(F)F)cc3)n2)c(SCc2cccc3ccccc23)cc1Cl', 'IC50', 'µM', 34);

Note: attention shifts to another entry.
Asked: Please report IC50 for the following compound: `COc1ccc(-c2cnnc(NS(=O)(=O)c3cc(C)c(Cl)cc3SCc3cccc4ccccc34)n2)cc1`
Given back: 42

---

protocol text: Metabolic stability with human liver microsomes and NADPH
Assay type: in vitro ADME
reported conditions: liver microsomes, pH 7.4, human liver microsomes 0.5 mg/mL, 1 mM NADPH, 10 μM compound, pH 7.4, 37 °C, up to 60 min, read-out: In Vitro Metabolic Half-Life t1/2
assay endpoint: half-life at 10 μM (min)
Field: numeric (min). Do not append units.

Field: example entries. Status: answers known.
INSERT INTO measurements (sample_smiles, assay_endpoint, reported_value) VALUES
  ('Cc1ccc(NC(=O)c2cc(S(=O)(=O)Nc3nncc(-c4ccc(C(F)(F)F)cc4)n3)c(SCc3ccccc3)cc2Cl)cc1', 'half-life at 10 μM', 26.5),
  ('COc1cccc(-c2cnnc(NS(=O)(=O)c3cc(C)c(Cl)cc3SCc3ccccc3)n2)c1', 'half-life at 10 μM', 24.9),
  ('COc1ccc(-c2cnnc(NS(=O)(=O)c3cc(C)c(Cl)cc3SCc3ccccc3)n2)cc1OC', 'half-life at 10 μM', 17.6),
  ('COc1ccc(-c2cnnc(NS(=O)(=O)c3cc(C)c(Cl)cc3SCc3ccc(C(F)(F)F)cc3)n2)cc1', 'half-life at 10 μM', 42.4),
  ('Cc1cc(S(=O)(=O)Nc2nncc(-c3ccc(C(F)(F)F)cc3)n2)c(SCc2cccc3ccccc23)cc1Cl', 'half-life at 10 μM', 32.8);

Asked: Hello, please tell me recorded half-life at 10 μM for this one: `COc1ccc(-c2cnnc(NS(=O)(=O)c3cc(C(=O)Nc4ccc(Cl)cc4)c(Cl)cc3SCc3ccccc3)n2)cc1`
Given back: 17.5

Asked: Please give the documented half-life at 10 μM of `Cc1cc(S(=O)(=O)Nc2nncc(-c3cccc(F)c3)n2)c(SCc2cccc3ccccc23)cc1Cl`
Given back: 13.9

---

protocol text: Metabolic stability with human liver microsomes and NADPH
Format: in vitro ADME
reported conditions: liver microsomes, pH 7.4, human liver microsomes 0.5 mg/mL, 1 mM NADPH, 10 μM compound, pH 7.4, 37 °C, up to 60 min, read-out: In Vitro Metabolic Half-Life t1/2
# reported half-life at 10 μM; entries follow

INSERT INTO assay_data (sample_smiles, reported_value) VALUES
  ('COc1ccc(-c2cnnc(NS(=O)(=O)c3cc(C)c(Cl)cc3SCc3cccc4ccccc34)n2)cc1', '< 0.0833 h'),
  ('Cc1cc(S(=O)(=O)Nc2nncc(-c3ccc(C(F)(F)F)cc3)n2)c(SCc2ccc(C(F)(F)F)cc2)cc1Cl', '> 1 h');

Asked: In one line, give reported half-life at 10 μM of the entry `O=C(Nc1ccc(Cl)cc1)c1cc(S(=O)(=O)Nc2nncc(-c3ccc(C(F)(F)F)cc3)n2)c(SCc2ccccc2)cc1Cl` .
Given back: > 1 h
